# test_summary: Metabolic stability in mouse hepatocytes assessed as half life
# Assay type: ADME, cell-based, Hepatocyte
measured_property: half-life (min)
Kindly provide the numeric value in min only, without the unit symbol.

// known answers, use as guide
Cn1ncc2cc(-c3cnc4[nH]ccc4c3N3CCC4(CCNC4=O)CC3)ccc21 : 9
Cn1ncc2cc(-c3cnc4[nH]cc(Cl)c4c3N3CCC4(CCNC4=O)CC3)ccc21 : 11
Cn1ncc2cc(-c3cnc4[nH]cnc4c3N3CCC4(CCNC4=O)CC3)ccc21 : 5
Cn1ncc2cc(-c3cnc4[nH]nc(Cl)c4c3N3CCC4(CCNC4=O)CC3)ccc21 : 46

With those in mind, consider the next compound.
Data request: Query (compound): `Cn1ncc2cc(-c3cnc4[nH]ncc4c3N3CCC4(CCNC4=O)CC3)ccc21` ; field requested: half-life
Data returned: 11

###

# study_system: CDK8/Cyclin C (Homo sapiens, UniProt P49336)
# Sequence (P49336 whole entry): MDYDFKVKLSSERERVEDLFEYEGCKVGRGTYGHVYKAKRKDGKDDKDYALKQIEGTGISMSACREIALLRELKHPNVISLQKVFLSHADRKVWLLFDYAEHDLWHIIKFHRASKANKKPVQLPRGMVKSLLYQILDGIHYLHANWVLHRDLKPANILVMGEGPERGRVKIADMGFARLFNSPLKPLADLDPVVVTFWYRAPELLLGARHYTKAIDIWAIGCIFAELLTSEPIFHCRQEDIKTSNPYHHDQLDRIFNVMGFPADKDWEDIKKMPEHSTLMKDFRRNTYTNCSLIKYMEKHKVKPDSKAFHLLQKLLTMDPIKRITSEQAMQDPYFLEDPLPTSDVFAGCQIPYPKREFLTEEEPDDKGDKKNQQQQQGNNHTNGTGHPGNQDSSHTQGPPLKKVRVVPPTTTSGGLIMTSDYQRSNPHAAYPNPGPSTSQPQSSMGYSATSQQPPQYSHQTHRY
# Sequence (P24863 whole entry, further chain): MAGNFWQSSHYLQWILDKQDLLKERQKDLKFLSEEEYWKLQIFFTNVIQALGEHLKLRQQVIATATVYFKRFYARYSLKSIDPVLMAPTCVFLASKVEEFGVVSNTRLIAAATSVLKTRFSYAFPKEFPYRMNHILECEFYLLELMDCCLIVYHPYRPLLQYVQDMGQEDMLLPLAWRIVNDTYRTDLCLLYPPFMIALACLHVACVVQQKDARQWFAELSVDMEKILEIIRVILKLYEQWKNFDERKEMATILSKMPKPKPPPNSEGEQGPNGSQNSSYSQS
# test_summary: Inhibition of tracer 236 binding to recombinant human His-tagged full length CDK8/Cyclin C expressed in baculovirus expression system by Lanthascreen assay
Some molecules, each annotated with its measured pIC50.
# pIC50: negative log10 of molar concentration; output just the value

Completed entries (count: 5):
O=C1NCCC12CCN(c1c(-c3ccc4ncsc4c3)cnc3[nH]ccc13)CC2 : 7.60
Cn1ncc2cc(-c3cnc4[nH]ccc4c3N3CC4(CNC(=O)C4)C3)ccc21 : 6.04
O=C1NCCC12CCN(c1c(-c3ccn4ccnc4c3)cnc3[nH]ccc13)CC2 : 7.12
Cn1ncc2cc(-c3cnc4[nH]ccc4c3N3CCC4(CCNC4=O)C3)ccc21 (stereo not given) : 7.26
Cn1cnc2cc(-c3cnc4[nH]ccc4c3N3CCC4(CCNC4=O)CC3)ccc21 : 7.49

Data request: Quick one: pIC50 of `Cn1ncc2cc(-c3cnc4[nH]ccc4c3N3CCC4(CC3)CNC4=O)ccc21` ?
Data returned: 8.22

Data request: Quick one: pIC50 of `Cn1ncc2cc(-c3cnc4[nH]nc(Cl)c4c3N3CCC4(CCNC4=O)CC3)ccc21` ?
Data returned: 9.00

Data request: What value of pIC50 has been reported for the following molecule? `Cn1ncc2cc(-c3cnc4[nH]cnc4c3N3CCC4(CCNC4=O)CC3)ccc21`
Data returned: 8.00

Data request: Can you share its pIC50? I mean this molecule: `O=C1NCCC12CCN(c1c(-c3ccc4scnc4c3)cnc3[nH]ccc13)CC2`
Data returned: 8.22

Data request: Would you mind telling me what pIC50 value was observed for `O=C1NCCC12CCN(c1c(-c3ccc4[nH]cnc4c3)cnc3[nH]ccc13)CC2` ?
Data returned: 8.30

###

# test_summary: Half life in C57Bl/6 mouse at 10 mg/kg, po
# Format: ADME, organism-based
# condition_notes: in vivo
measured_property: half-life (h)
Respond numerically; units are h and should not be typed.

Data request: Returns the measured half-life for the input compound. Input: `Cn1ncc2cc(-c3cnc4[nH]nc(Cl)c4c3N3CCC4(CCNC4=O)CC3)ccc21`
Data returned: 1.3

###

# reported IC50; entries follow
# study_system: Cyclin-C/Cyclin-dependent kinase 19 (Homo sapiens)
# Sequence (Q9BWU1 whole entry, one chain of several, the tested form may be a part): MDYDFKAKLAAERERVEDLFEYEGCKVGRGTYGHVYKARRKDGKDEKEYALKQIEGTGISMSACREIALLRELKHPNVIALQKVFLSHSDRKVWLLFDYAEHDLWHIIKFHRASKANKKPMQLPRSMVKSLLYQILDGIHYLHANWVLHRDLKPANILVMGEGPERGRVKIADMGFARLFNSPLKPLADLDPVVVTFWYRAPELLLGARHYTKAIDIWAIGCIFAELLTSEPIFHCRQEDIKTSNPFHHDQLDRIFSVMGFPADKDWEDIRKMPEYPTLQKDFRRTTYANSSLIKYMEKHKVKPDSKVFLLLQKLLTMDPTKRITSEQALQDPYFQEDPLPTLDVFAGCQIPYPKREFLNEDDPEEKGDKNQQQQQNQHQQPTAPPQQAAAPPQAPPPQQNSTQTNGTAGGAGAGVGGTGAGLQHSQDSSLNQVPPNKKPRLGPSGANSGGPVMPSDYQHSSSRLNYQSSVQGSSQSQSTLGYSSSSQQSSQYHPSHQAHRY
# test_summary: Inhibition of tracer 236 binding to recombinant human GST/His-tagged CDK11 (1 to 502 residues)/Cyclin C( 1 to 283 residues) expressed in insect cells by Lanthascreen assay
Field: numeric (µM). Do not append units.

Below: 5 molecules and their reported IC50.
Cn1ncc2cc(-c3cnc4[nH]ccc4c3N3CC4(CCNC4=O)C3)ccc21 : 0.426
Cn1ncc2cc(-c3cnc4[nH]ccc4c3N3CC4(CNC(=O)C4)C3)ccc21 : 0.698
Cn1ncc2cc(-c3cnc4[nH]cc(Cl)c4c3N3CCC4(CCNC4=O)CC3)ccc21 : 0.01
Cn1ncc2cc(-c3cnc4[nH]ncc4c3N3CCC4(CCNC4=O)CC3)ccc21 : 0.214
Cn1ncc2cc(-c3cnc4[nH]ccc4c3N3CCC4(CC3)NC(=O)NC4=O)ccc21 : 0.002

Data request: Quick one: IC50 of `Cn1ncc2cc(-c3cnc4[nH]ccc4c3N3CCC4(CC3)CNC(=O)O4)ccc21` ?
Data returned: 0.006

Data request: Entry `Cn1ncc2cc(-c3cnc4[nH]ccc4c3N3CCC4(CC3)CNC4=O)ccc21` has what IC50?
Data returned: 0.006

Data request: So what's the measured IC50 for this one? Cn1ncc2cc(-c3cnc4[nH]ccc4c3N3CCC4(CCNC4=O)C3)ccc21 (stereo not given)
Data returned: 0.029

Data request: Need IC50, item `O=C1NCCC12CCN(c1c(-c3ccc4scnc4c3)cnc3[nH]ccc13)CC2`
Data returned: 0.014

Data request: Any idea what IC50 was measured for `O=C1NCCC12CCN(c1c(-c3ccc4ncnn4c3)cnc3[nH]ccc13)CC2` ?
Data returned: 1.02
